Reference source: patent US20180079802A1

- tgt: CHIKV p62-E1 (Chikungunya virus)
- methodNotes: SPR (Biacore T100), IgG captured by anti-human IgG, p62-E1 injected
Decision: kon compared against 200000 M⁻¹ s⁻¹; not below it gives Yes, below it gives No.

Look over these answered cases.
binder	classAssignment
1L1 (antibody, V domains shown) VH: QVQLVQSGPTLVKPTQTLTLTCTFSGFSLSISGVGVGWIRQPPGKALEWLALIYWDDDKRYSPSLKSRLTITKDTSENQVVLTMTNMDPVDTATYYCAHSMTKGGAIYGQAYFEYWGQGTLV VL: PSPALEPDSDVGGYNYVSWYQQHPGKAPKLIIYDVTDRPSGVSNRFSASKSANTASLTISGLQAEDEADYYCSSYTSSST	No
5O14 (antibody, V domains shown) VH: QVQLVQSGGRVVQAGRSLRLSCAASGFTFSMYGVHWVRQAPGKGLEWVAVIWNDGSKEYYGDSVKGRFTISRDNSRNTLYLQMNSLRVDDTAVYFCARDGIPDPERGDYGGLDYWGQGTLVTVSS VL: QTVVTQFPSSPFASVGDGVTITCRARQSISSYVNWYQQKPGKAPKLLIYATSSLQSGVPSRFSGSGYGTDFTLTISGLQPEDFATYYCQQSYSFPRTFGQGTKVEIK	Yes
8G18 (antibody, V domains shown) VH: QVQLVQSGAQVKKPGSSVKVSCKPSGGTFNNNGISWVRQAPGQGLEWMGGIVPNFGTPTYGQDFQGRVTITADESTSTVFLELTRLRSDDTAVYFCARGRTAVTPMQLGLQFYFDFWGRGTLVTVSS VL: QTVVTQEPSLTVSPGGTVTLTCSANSGAVTSDYYPNWFQQKPGQAPRALIYSASNKFSWTPARFSGSLLGGKAALTLSGAQPEDEAEYYCLVYSGDGVVFGGGTKLTV	Yes
3A2 (antibody, V domains shown) VH: QVQLVQSGGGVVQPGRSLRLSCAASGFTFSNYVMEWVRQAPGKGLEWVAVISYDGSNKYYADSVKGRFTISRDNSKNTLYLQMNSLRAEDTAVYYCARSEWESSYGSGNYYTDYFYYYAMDVWGPGTLVTVSS VL: QAVVTQSPLSLPVTPGEPASISCRSNQSLLRGIRYNYLDWYLQKPGQSPQLLIYLGSNRASGVPDRFSGSGSATDFTLKISRVEAEDVGVYYCMQALQTPTTFGQGTRLEIK	Yes
4J14 (antibody, V domains shown) VH: QVQLVQSGAEVKKPGSSVKVSCKASGGTSSTYAISWVRQAPGQGLEWMGGSIPVFATVNYAQKFQGRLTITADESTSTVYMELSSLRSEDTAVYFCASPYCSSMNCYTTFYYFDFWGQGTLVTVSS VL: QAVVTQPASVFGFPGQSITISCTGTSSDFGTYNYVSWYQQHPGQAPKLMIFDVSNRPSGVSNRFSGSKSGNTASLTISGLQAEDEASYYCSSYTSGSTLYGGGTKLTVL	No
2D12 (antibody, V domains shown) VH: QVQLVQSGAEVKKPGASVKVSCKASGYSFNIYGISWVRQAPGQGLEWMGWISAYNGNTNYAQKLQGRVTMTTDTSTSTAYMELRSLRSDDTAVYYCARPLWGEFYYDIWGQGTLVTVSS VL: QAVVTQSPGTLSLSPGERATLSCRASQSVSSGYSAWYQQKPGQAPRLLIYGASKRAAGIPDRFSGSGSGTDFTLTISRLEPEDFAVYYCQLFATSPPPFGQGTRLEIK	Yes

(Q) Quick check: does 4N12 (antibody, V domains shown) VH: QVQLVQSGAEVKKPGASVKVSCKVSGYILSKLSVHWVRQAPGKGLEWMGGSEREDGETVYAQKFQGRISLTEDTSIETAYMELSSLSSEDTAVYYCATGGFWSMIGGNGVDYWGQGTLVTVSS VL: QAVVTQSPSSLPASVGDRVTITCRASQDIRNNLGWYQQKPGKAPERLIYGTSNLQSGVPSRFSGSGSGTEFTLTISSLQPEDFATYYCLQHNSYPPTFGRGTKVEIK have kon greater than or equal to 200000 M⁻¹ s⁻¹?
(A) No

(Q) Quick check: does 4J21 (antibody, V domains shown) VH: QVQLVQSGSELKKPGASVKVSCKASGYSFTSYSINWVRQAPGQGPEWMGWIDTNTGNPTYAQDFAGRFVFSLDTSVTTAYLQISSLKAGDTAVYYCATYYVDLWGSYRQDYYGMDVWGHGTLVTVSS VL: QSVVTQPPSVSGTPGQGVTISCSGGSSNIGSNPVNWYQMVPGTAPKLLLYTNNQRPSGVPDRFSGSKSGTSASLAINGLQSEDEADYYCAVWDDSLSGRWVFGGGTKLTVL have kon greater than or equal to 200000 M⁻¹ s⁻¹?
(A) No

(Q) Quick check: does 2C2 (antibody, V domains shown) VH: QVQLVQSGGGLVQPGRSLTLSCAASGFTFDVYAMHWVRQAPGKGLEWVAGISWNSGSVGYADSMKGRFTISRDNAKNSLYLQINSLRAEDTALYYCAKAFWFGELSGYGMDVWGQGTLVTVSS VL: QAVVTQPPSASGFPGQSVTISCTGTSSDVGSYNYVSWYQQHPGKAPKLIIYAVTRRPSGVPERFSGSKSGNTASLTVSGLQAEDEADYYCTSYAGNNKDVFGTGTKVTVL have kon greater than or equal to 200000 M⁻¹ s⁻¹?
(A) No

(Q) Quick check: does 3B4 (antibody, V domains shown) VH: QVQLEESGPTLVKPTQTLTLTCSFSGFSLTTTGVTVGWIRQPPGKALEWLALIYWDDDKRYSPSLKSRLTITKDTSKNQVVLTMTNMDPVDTATYYCAHSTGYYDSSGYRGALDAFAVWGQGTLVTVSS VL: QIVVTQFPDSPAVSLGERATINCKSSQSVLYHSNNKNYLAWYQQKPGQPPNLLIYWASARQSGVPDRFSGSGSGTDFTLTISSLQAEDVAVYYCQQYYSTPYTFGQGTKLEIK have kon greater than or equal to 200000 M⁻¹ s⁻¹?
(A) Yes
